From: ChEMBL document CHEMBL4316656

Protocol summary: Selectivity index, ratio of CC50 for mouse L929 cells to IC50 for Trypanosoma cruzi amastigotes infected in peritoneal macrophages (unknown origin)
Type: toxicity
Run conditions: read-out: Ratio CC50/IC50
Quantity: selectivity ratio

{"Compound": "C=CCCCCCCC#CCCCCCCCCCC[C@@H]1C(=O)O[C@H](C)[C@@H]1O", "Quantity": "selectivity ratio", "Reported": "> 3.4"}
{"Compound": "C=CCCCCCCC#CCCCCCCCCCCC1=C(O)[C@@H](C)OC1=O", "Quantity": "selectivity ratio", "Reported": "> 7.2"}

Proceeding to the next compound to report its selectivity ratio.
stdin: Name the recorded selectivity ratio for C=CCCCCCCC#CCCCCCCCCCCC1=C(O)C(=C)OC1=O .
stdout: 3.5

---

Protocol summary: Cytotoxicity against mouse L929 cells measured after 48 hrs by MTT assay
Type: cell-based
CC50 at 48 h values by entry

{"Compound": "C=CCCCCCCC#CCCCCCCCCCCC1=C(O)[C@@H](C)OC1=O", "CC50 at 48 h": "> 200 µM"}
{"Compound": "CCCCCCCCC#CCCCCCCCC(=O)O", "CC50 at 48 h": "> 200 µM"}
{"Compound": "C=CCCCCCCC#CCCCCCCCCCC[C@@H]1C(=O)O[C@H](C)[C@@H]1O", "CC50 at 48 h": "> 200 µM"}

Proceeding to the next molecule to report its CC50 at 48 h.
stdin: Name the recorded CC50 at 48 h for C=CCCCCCCC#CCCCCCCCCCCC1=C(O)C(=C)OC1=O .
stdout: 80 µM
